Answer each item with its documented pIC50.
# assayed.system: human TREX2 (residues M44-A279) (Homo sapiens, UniProt Q9BQ50)
# Construct: human TREX2 (residues M44-A279, expressed in E. coli); His-TEV (His tag with TEV site) (N)
# Sequence (Q9BQ50 44-279 isoform Q9BQ50-1): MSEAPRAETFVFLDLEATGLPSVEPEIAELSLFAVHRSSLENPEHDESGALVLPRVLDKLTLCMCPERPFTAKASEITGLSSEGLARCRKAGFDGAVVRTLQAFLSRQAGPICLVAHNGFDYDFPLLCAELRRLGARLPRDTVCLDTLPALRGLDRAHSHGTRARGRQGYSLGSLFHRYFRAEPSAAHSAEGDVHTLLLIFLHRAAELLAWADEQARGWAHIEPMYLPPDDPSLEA
# experiment.summary: TREX2 Biochemical Assay (fluorescence, dsDNA substrate degradation)
# settings: 2.5 nM TREX2, 60 nM dsDNA substrate, 25 minutes at room temperature
pIC50: −log10 of the molar value.

Worked set:
CN(c1nc(C(=O)Nc2cnoc2)c(O)c(=O)n1C)C(c1ccccc1)c1ccccc1C#N (single isomer, unassigned) [Example 86]	> 6.00
CN(c1nc(C(=O)Nc2cnoc2)c(O)c(=O)n1C)C(c1ccccc1)c1ccccn1 (single isomer, unassigned) [Example 42]	5.00 to 6.00
CN(c1nc(C(=O)Nc2cnoc2)c(O)c(=O)n1C)C(c1ccccc1Cl)C1CC1 (single isomer, unassigned) [Example 69]	> 6.00
Cc1ncc(C(c2ccccc2Cl)N(C)c2nc(C(=O)Nc3cnoc3)c(O)c(=O)n2C)cn1 (single isomer, unassigned) [Example 82]	< 4.00
CN(Cc1cccc(-c2cnn(C)c2)c1)c1nc(C(=O)Nc2cnoc2)c(O)c(=O)n1C	5.00 to 6.00
CN(c1nc(C(=O)Nc2cnoc2)c(O)c(=O)n1C)C(c1ccccc1)c1ccccc1	> 6.00

Proceed to the following item.
// query What pIC50 value was documented for this compound, CN(c1nc(C(=O)Nc2cnoc2)c(O)c(=O)n1C)C(c1ccccc1)c1ccccc1C(F)(F)F (single isomer, unassigned) [Example 84] ?
// result > 6.00
